From: patent US20240301023A1

Assay: Stability in rat plasma
Assay type: in vitro ADME
Details: both sexes, Wistar, 37° C., 100 μM peptide
Square brackets hold non-standard residues; d marks the D form. Peptide text beside a SMILES is read from it. Phe(4-Cl) = N[C@@H](Cc1ccc(Cl)cc1)C(=O)O; Phe(4-F) = N[C@@H](Cc1ccc(F)cc1)C(=O)O; NMeR = CN[C@@H](CCCNC(=N)N)C(=O)O; Sar = CNCC(=O)O
Listed here are compounds together with their documented half-life at 100 µM.
Note: unit h is implicit; provide only the numeric part.

Answered cases to consult:
CC(C)C[C@@H](NC(=O)[C@@H](Cc1ccccc1)NC(=O)[C@H](N)Cc1ccccc1)C(=O)N[C@H](CCCCN)C(=O)N1CCC(N)(C(=O)O)CC1 [SEQ ID NO. 35, DPhe-DPhe-DLeu-DLys-Cap-CO2H, reference compound]    10.8
CC(C)C[C@H](NC(=O)[C@H](Cc1ccc(Cl)cc1)NC(=O)CN(C)C(=O)[C@@H](N)Cc1ccc(O)cc1)C(=O)N[C@@H](CCCCN)C(=O)N[C@H](CCCNC(=N)N)C(N)=O [SEQ ID NO. 16, NH2-Tyr-Sar-(4-Cl)Phe-Leu-Lys-DArg-NH2] (H-Y[Sar][Phe(4-Cl)]LK[dR]-NH2)    1.17
CC(C)C[C@H](NC(=O)[C@H](Cc1ccc(F)cc1)NC(=O)CN(C)C(=O)[C@@H](N)Cc1ccc(O)cc1)C(=O)N[C@@H](CCCNC(=N)N)C(=O)N[C@H](CCCNC(=N)N)C(N)=O [SEQ ID NO. 12, NH2-Tyr-Sar-(4-F)Phe-Leu-Arg-DArg-NH2] (H-Y[Sar][Phe(4-F)]LR[dR]-NH2)    0.532

Input: half-life at 100 µM for CC(C)C[C@H](NC(=O)[C@H](Cc1ccc(F)cc1)NC(=O)CN(C)C(=O)[C@@H](N)Cc1ccc(O)cc1)C(=O)N(C)[C@@H](CCCNC(=N)N)C(=O)N[C@H](CCCNC(=N)N)C(N)=O [SEQ ID NO. 14, NH2-Tyr-Sar-(4-F)Phe-Leu-NMA-DArg-NH2] (H-Y[Sar][Phe(4-F)]L[NMeR][dR]-NH2) ?
Output: 5.4
